Source listed as PubChem BioAssay (NCI).

measurement description: NCI Yeast Anticancer Drug Screen. Data for the sgs1 mgt1 strain (AID 161)
cond: S. cerevisiae sgs1 mgt1 strain, at 50.0 µM
Compounds without any hit were thinned out: in the full panel of roughly 79,000, 15% have a hit. Active and inactive are the calls of the source. No stated cut-off is given here; in the data, active means growth inhibition above about 70%; inactive means the rest.
Result category, one only: active, inactive

As a guide, the following entries are already answered.
{"columns": ["molecule", "discrete label"],
 "data": [
  ["C[n+]1c(/C=C/c2ccc([N+](=O)[O-])cc2)ccc2ccccc21", "inactive"],
  ["COc1ccc(NC(=O)OC(C)C)c(OC)c1", "inactive"],
  ["O=C(O)c1ccccc1Cc1ccc2c(c1)Cc1ccccc1-2", "inactive"],
  ["O=[N+]([O-])c1ccc(-n2ncc3cccnc32)c([N+](=O)[O-])c1", "active"],
  ["O=c1cc(CI)oc2ccccc12", "active"],
  ["Oc1c(Cl)c2ccccc2c2ccccc12", "active"]
]}

Entry O=[N+]([O-])C1C(c2ccccc2)CC=CC1N1CCCC1 (configuration not stated) : call = ?
active
